B1: 2M8U (parent)
chain: TKAQVIEAFKVFDRDGNGYVTVDYLRKVLNELGDMMPADEIEEMIYEADPQNSGYVQYETFVGMLFL

Variants of: B1
Measurement notes: folding stability dG (cDNA display proteolysis); higher = more stable
Settings: PBS, room temperature
Record form. Attribute: folding stability dG. Fill in for each entry.
Report the value in kcal/mol with no unit label.

**Q:** For TKAQVIEAFKVFDRDGNGYWTVDYLRKVLNELGDMMPADEIEEMIYEADPQNSGYVQYETFVGMLFL [V20W] , what is its reported folding stability dG?
**A:** 2.96

**Q:** If you can, please state the reported folding stability dG value of TKAQVIEAFKVFDRDGNGYVTMDYLRKVLNELGDMMPADEIEEMIYEADPQNSGYVQYETFVGMLFL [V22M] .
**A:** 3

**Q:** Given the entry TKAQVIEHFKVFDRDGNGYVTVDYLRKVLNELGDMMPADEIEEMIYEADPQNSGYVQYETFVGMLFL [A8H] , report its measured folding stability dG.
**A:** 3.02

**Q:** Item TSAQVIEAFKVFDRDGNGYVTVDYLRKVLNELGDMMPADEIEEMIYEADPQNSGYVQYETFVGMLFL [K2S] has what recorded folding stability dG?
**A:** 2.98

**Q:** For the variant TKAQVIEAFKVFDRDGNGYVTVDYLRKVLNELGDMMPADEIEESIYEADPQNSGYVQYETFVGMLFL [M44S] , what folding stability dG is on record?
**A:** 2.96

**Q:** Please look up its folding stability dG: TKAQVIEAFKVFDRDGNGYVTVDYLRKVLNELGDMMPADEIEEMIYEADHQNSGYVQYETFVGMLFL [P50H]
**A:** 3.07

**Q:** Given the variant TKAQVIEAFKVFDRDGNGVVTVDYLRKVLNELGDMMPADEIEEMIYEADPQNSGYVQYETFVGMLFL [Y19V] , what is its reported folding stability dG?
**A:** 3.05

**Q:** Reported folding stability dG for TKAQVIEAFKVFDRDGNGYVTVDYLRKVLNELGDMMPADEIEEMIYEADGQNSGYVQYETFVGMLFL [P50G] : what is it?
**A:** 3

**Q:** Item under review: TKAQVIEAFKVFDRDGNGYVTVDYLRKVLNELGDMMPADEIEETIYEADPQNSGYVQYETFVGMLFL [M44T] . Reported folding stability dG?
**A:** 2.97
